Where these numbers come from: ChEMBL document CHEMBL1649413

Tested on: Salmonella typhimurium
measurement protocol: Antibiofilm activity in Salmonella Typhimurium ATCC 14028 assessed as inhibition of biofilm formation at 25 degC after 24 hrs
Format: functional, organism-based, Salmonella enterica subsp. enterica serovar Typhimurium
test settings: Salmonella enterica, ATCC 14028, 24 h
Each item that follows carries a reported IC50.

Known results for compounds:
{"smiles repr": "CCCCCCCCCCCCCn1c(-c2ccc(-c3ccccc3)cc2)cnc1N", "IC50": "> 800 µM"}
{"smiles repr": "Cc1ccc(-c2nc(N)n(-c3ccccc3)c2-c2ccc(Cl)cc2)cc1", "IC50": "> 400 µM"}
{"smiles repr": "Cc1ccc(-c2[nH]c(N)nc2-c2ccc(Cl)cc2)cc1", "IC50": "12.9 µM"}

// assay Salmonella typhimurium, entry CCCC[n+]1c(-c2ccc([N+](=O)[O-])cc2)cn2cccnc21.[O-][Cl+3]([O-])([O-])[O-] , IC50 value = > 400 µM
